Source: Sander's compilation of Henry's law constants (doi:10.1021/es970763v)

Assay: Henry solubility constant Hcp at 298.15 K (mol/(m3 Pa))
Conditions: reference: Welke et al. (1998)
quantity.kind: Henry solubility constant Hcp
Answer with a number only.

*Q* Item under review: C=CC#N . Reported Henry solubility constant Hcp?
*A* 0.031

*Q* Next record, please: CCCCOC(C)=O [butyl ethanoate]
*A* 0.027

*Q* Next record, please: CC(C)=O
*A* 0.096

*Q* Next record, please: CCOC(C)=O [ethyl ethanoate]
*A* 0.034

*Q* Next record, please: C=C(C)C1CC=C(C)CC1 (stereo not given)
*A* 0.00024
